tested on: Candida albicans multidrug efflux pump MDR1 (expressed in S. cerevisiae AD1-8u); experiment: CaMdr1 pump blockers in yeast – flow cytometry, singleplex, Cherry Pick1 set, confirmation (AID 588518);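 further: 0% = DMSO vehicle and 100% = reference inhibitor; higher means more Nile Red retained so more efflux inhibition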; settings: S. cerevisiae AD/CaMDR1, Nile Red efflux, at 10 µM, active compounds read high
Screen size: about 1,700 compounds; about 20 (1%) were called active. This excerpt belongs to a sample that is enriched for actives.
Readout label: inhibition (%)
Answers are plain numbers, in %.

Use these answered entries as a reference point.
Cc1cc(C(=O)Nc2ccc(C)c(S(=O)(=O)N3CCOCC3)c2)c2ccccc2n1    -0.31
O=C(CSc1nnc(-c2cccnc2)n1Cc1ccco1)c1ccc(Cl)c(Cl)c1    0.13
Cc1ccc(Cn2nnc3c(=O)[nH]c(C4CCN(S(=O)(=O)/C=C/c5ccccc5)CC4)nc32)cc1    -0.18
O=C(Nc1ccc(NC(=O)c2cccs2)cc1)c1ccc2ccccc2c1    0.05
Cc1cc(/C=N/NC(=O)CC2(C)OCCO2)c(C)n1-c1ccc(Cl)c(Cl)c1    0.16

For the 7 molecules below, give their inhibition values.
1. Cc1nc2c(C(=O)NCc3ccc4c(c3)OCO4)c[nH]n2c(=O)c1Cc1ccccc1F
2. CCOC(=O)CNC(=O)CSc1nnnn1-c1cc(C)ccc1C
3. Cc1oc2cc3oc(=O)ccc3cc2c1C
4. O=C(CNC(=O)c1ccc(-c2ccccc2)cc1)OCc1ccc(Cl)cc1
5. CN=C(c1ccccc1)c1c(C)cccc1C
6. Cc1cccc(NC(=O)COc2ccccc2C)n1
7. CC1CCc2c(sc(NC(=O)c3ccc(Cn4cc(Br)cn4)o3)c2C(N)=O)C1 (stereo not drawn)

### Response
1: -0.28; 2: -0.31; 3: -0.03; 4: 0.01; 5: -0.14; 6: -0.06; 7: -0.1

---

system: Candida albicans multidrug efflux pump MDR1 (expressed in S. cerevisiae AD1-8u); assay: CaMdr1 pump blockers in yeast – flow cytometry, singleplex, Cherry Pick1 set, confirmation (AID 588518);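 further: 0% = DMSO vehicle and 100% = reference inhibitor; higher means more Nile Red retained so more efflux inhibition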; conditions: S. cerevisiae AD/CaMDR1, Nile Red efflux, at 10 µM, active compounds read high
The campaign covered roughly 1,700 compounds. About 20 (1%) were called active. Only a selection was taken, and actives are over-represented in it overall.
Readout label: inhibition

Reference set, count: 10
Cc1c(CCOC(=O)CC23CC4CC(CC(C)(C4)C2)C3)sc[n+]1Cc1ccc([N+](=O)[O-])cc1    -0.01% (inactive)
CSCCC(NC(=O)COc1ccccc1)C(=O)OCCOc1ccc(Br)cc1 (configuration not stated)    -0.39% (inactive)
CC(C)C(=O)N1CCC2(CC1)Oc1ccc(F)cc1C(=O)C21CC(c2ccccc2)=NO1 (configuration not stated)    45.9% (active)
CC12CCC(C(=O)N(c3cccc(Cl)c3)C1=O)C2(C)C (configuration not stated)    -0.13% (inactive)
Cc1ccc(/C=C(\C#N)C(=O)Nc2cccc3ncccc23)o1    -0.29% (inactive)
Cc1cc(C)cc(NC(=O)C(OC(=O)c2ccc(O)cc2)c2ccccc2)c1 (configuration not stated)    -0.15% (inactive)
CN1CCN(S(=O)(=O)c2ccc(NC(=S)NC(=O)C3CC3)cc2)CC1    -0.06% (inactive)
O=C(NCc1ccccc1)C(=O)NCC1OCCN1S(=O)(=O)c1ccc(Br)cc1 (configuration not stated)    -0.13% (inactive)
O=C(CCCCCn1c(=O)[nH]c2ccccc2c1=O)NCCc1c[nH]c2ccccc12    -0.03% (inactive)
O=C(Cc1ccc(Br)cc1)N1CCN(c2ccccn2)CC1    -0.14% (inactive)

// for each molecule in input: emit inhibition
1. CCCc1nc(N2CCN(C)CC2)c2sc(=S)n(-c3ccccc3)c2n1
2. CCNC(=O)c1c(O)c2cccc3c2n(c1=O)CC3
3. CN(C)S(=O)(=O)c1cc(C(=O)Nc2ccn(C)n2)c(Cl)cc1Cl

### Response
1. -0.01% (inactive)
2. -0.2% (inactive)
3. -0.29% (inactive)
